- experimental system: GluN1/GluN2D (Rattus norvegicus, UniProt Q62645)
- test name: Two-electrode voltage-clamp recordings, Xenopus laevis oocytes, GluN1/GluN2D
- Type: cell-based
- Set-up: GluN2B (NM_012574.1), GluN2C (NM_012575.3), and GluN2D (NM_022797.2) were provided by; expressed in transfected cells; host or cells: Xenopus laevis oocytes (cRNA injection)
- condition info: GluN2D over GluN2B
Note to self: Selectivity 2B IC50 / 2D IC50 under 60 fold means Fulfilled, ties and anything higher get Not fulfilled.

- CNC(=O)CC(F)(F)C(=O)N1N=C(c2c(-c3ccc(Cl)cc3)c3ccccc3[nH]c2=O)CC1c1ccc(Cl)cc1 (stereo not shown) [2q]: Fulfilled
- O=C(O)CCCC(=O)N1N=C(c2c(-c3ccc(Cl)cc3)c3ccccc3[nH]c2=O)CC1c1ccc(Cl)cc1 (stereo not shown) [2b]: Fulfilled
- NC(=O)CC(F)(F)C(=O)N1N=C(c2c(-c3ccc(Cl)cc3)c3ccccc3[nH]c2=O)CC1c1ccc(Cl)cc1 (stereo not shown) [2k]: Fulfilled
- O=C(O)CC(F)(F)C(=O)N1N=C(c2c(-c3ccc(Cl)cc3)c3ccccc3[nH]c2=O)CC1c1ccc(Cl)cc1 (stereo not shown) [2i]: Not fulfilled
- O=C(CCc1nnn[nH]1)N1N=C(c2c(-c3ccc(Cl)cc3)c3ccccc3[nH]c2=O)CC1c1ccc(Cl)cc1 (stereo not shown) [2h]: Fulfilled

IN: Field: below-cutoff. Rule: recorded Selectivity 2B IC50 / 2D IC50 strictly less than 60 fold. Subject: O=C(O)CC(F)(F)C(=O)N1N=C(c2c(-c3ccc(Cl)cc3)c3ccccc3[nH]c2=O)C[C@H]1c1ccc(Cl)cc1 [(S)-(−)-2i]
OUT: Not fulfilled

IN: Field: below-cutoff. Rule: recorded Selectivity 2B IC50 / 2D IC50 strictly less than 60 fold. Subject: N[C@@H](CCC(=O)N1N=C(c2c(-c3ccc(Cl)cc3)c3ccccc3[nH]c2=O)CC1c1ccc(Cl)cc1)C(=O)O (stereo partly shown) [2d]
OUT: Fulfilled

---

- test name: Mouse plasma and brain pharmacokinetics, IP administration
- Assay type: in vivo
- condition info: male, mouse, plasma; 10 mg/kg IP, C57BL/6 mice
test readout: Cmax (ng/mL)
Give the value in ng/mL but do not write ng/mL after it.

• NC(=O)CC(F)(F)C(=O)N1N=C(c2c(-c3ccc(Cl)cc3)c3ccccc3[nH]c2=O)CC1c1ccc(Cl)cc1 (centres unmarked) = 815

Shift focus to the following entry.
IN: What value of Cmax has been recorded for this entry: O=C(O)CC(F)(F)C(=O)N1N=C(c2c(-c3ccc(Cl)cc3)c3ccccc3[nH]c2=O)CC1c1ccc(Cl)cc1 (centres unmarked)
OUT: 1870

---

- experimental system: GluN1/GluN2D (Rattus norvegicus, UniProt P35439+Q62645)
- Sequence (Q62645 28-1323, other chains not shown): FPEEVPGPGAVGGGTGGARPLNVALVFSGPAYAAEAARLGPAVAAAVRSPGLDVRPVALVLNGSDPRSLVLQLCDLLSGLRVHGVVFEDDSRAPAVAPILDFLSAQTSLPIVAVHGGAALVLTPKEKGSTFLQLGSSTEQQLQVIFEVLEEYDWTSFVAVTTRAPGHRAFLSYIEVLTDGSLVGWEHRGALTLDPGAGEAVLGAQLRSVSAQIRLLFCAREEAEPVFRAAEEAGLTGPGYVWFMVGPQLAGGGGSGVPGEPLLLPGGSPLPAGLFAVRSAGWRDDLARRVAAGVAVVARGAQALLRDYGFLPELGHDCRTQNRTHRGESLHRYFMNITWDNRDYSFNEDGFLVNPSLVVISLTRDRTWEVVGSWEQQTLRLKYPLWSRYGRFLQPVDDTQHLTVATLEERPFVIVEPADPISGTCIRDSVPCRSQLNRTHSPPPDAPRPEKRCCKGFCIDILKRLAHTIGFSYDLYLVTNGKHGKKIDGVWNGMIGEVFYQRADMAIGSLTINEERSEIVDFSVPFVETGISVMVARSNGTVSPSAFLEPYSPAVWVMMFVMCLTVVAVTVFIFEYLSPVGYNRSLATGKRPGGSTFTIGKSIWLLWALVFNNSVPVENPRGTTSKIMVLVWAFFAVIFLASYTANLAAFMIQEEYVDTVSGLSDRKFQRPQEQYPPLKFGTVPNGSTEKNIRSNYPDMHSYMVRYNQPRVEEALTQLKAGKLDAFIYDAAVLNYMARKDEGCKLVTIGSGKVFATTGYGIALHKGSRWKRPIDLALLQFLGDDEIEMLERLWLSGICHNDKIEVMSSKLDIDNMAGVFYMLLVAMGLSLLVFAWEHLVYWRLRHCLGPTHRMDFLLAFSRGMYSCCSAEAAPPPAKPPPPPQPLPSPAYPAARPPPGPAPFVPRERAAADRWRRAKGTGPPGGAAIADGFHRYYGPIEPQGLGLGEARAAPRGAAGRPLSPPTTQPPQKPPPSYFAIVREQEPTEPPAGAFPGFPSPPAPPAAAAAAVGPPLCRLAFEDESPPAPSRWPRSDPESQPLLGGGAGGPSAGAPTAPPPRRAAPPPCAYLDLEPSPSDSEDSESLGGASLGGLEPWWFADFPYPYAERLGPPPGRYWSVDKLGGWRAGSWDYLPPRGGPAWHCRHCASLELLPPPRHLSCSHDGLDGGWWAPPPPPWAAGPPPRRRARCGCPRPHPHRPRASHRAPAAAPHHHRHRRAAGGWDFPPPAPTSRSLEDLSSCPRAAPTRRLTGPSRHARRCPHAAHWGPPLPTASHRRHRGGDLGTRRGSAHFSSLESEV
- test name: Whole-cell voltage-clamp recordings, HEK cells, GluN1/GluN2D (agonist dependence)
- Format: cell-based
- condition info: inhibitor preapplied; from kON and kOFF
test readout: pKd
Kindly note that pKd refers to -log10 of the concentration in mol/L and answer with the value alone.

IN: Fill in the recorded pKd for this compound, with GluN1/GluN2D (Rattus norvegicus, UniProt P35439+Q62645) as test system: O=C(O)CC(F)(F)C(=O)N1N=C(c2c(-c3ccc(Cl)cc3)c3ccccc3[nH]c2=O)CC1c1ccc(Cl)cc1 (stereo not shown)
OUT: 6.37

---

- experimental system: GluN1/GluN2D (Rattus norvegicus, UniProt P35439+Q62645)
- test name: Two-electrode voltage-clamp recordings, Xenopus laevis oocytes, GluN1/GluN2D
- Format: cell-based
- Design: GluN2B (NM_012574.1), GluN2C (NM_012575.3), and GluN2D (NM_022797.2) were provided by; expressed in transfected cells; host or cells: Xenopus laevis oocytes (cRNA injection)
- condition info: 100 μM glutamate, 30 μM glycine; read-out: IC50 GluN2D [95% CI]
test readout: pIC50
Kindly note that pIC50 refers to -log10 of the concentration in mol/L and answer with the value alone.

Solved entries:
- CN(C)C(=O)CC(F)(F)C(=O)N1N=C(c2c(-c3ccc(Cl)cc3)c3ccccc3[nH]c2=O)CC1c1ccc(Cl)cc1 (stereo not shown) [2r]: 5.85
- CNC(=O)CC(F)(F)C(=O)N1N=C(c2c(-c3ccc(Cl)cc3)c3ccccc3[nH]c2=O)CC1c1ccc(Cl)cc1 (stereo not shown) [2q]: 6.39
- O=C(CCc1nnn[nH]1)N1N=C(c2c(-c3ccc(Cl)cc3)c3ccccc3[nH]c2=O)CC1c1ccc(Cl)cc1 (stereo not shown) [2h]: 6.28

IN: What value of pIC50 has been recorded for this entry: N[C@@H](CCC(=O)N1N=C(c2c(-c3ccc(Cl)cc3)c3ccccc3[nH]c2=O)CC1c1ccc(Cl)cc1)C(=O)O (stereo partly shown) [2d]
OUT: 5.96

IN: What value of pIC50 has been recorded for this entry: N#CCCC(=O)N1N=C(c2c(-c3ccc(Cl)cc3)c3ccccc3[nH]c2=O)CC1c1ccc(Cl)cc1 (stereo not shown) [2e]
OUT: 4.55

IN: What value of pIC50 has been recorded for this entry: O=C(O)CC(F)(F)C(=O)N1N=C(c2c(-c3ccc(Cl)cc3)c3ccccc3[nH]c2=O)C[C@H]1c1ccc(Cl)cc1 [(S)-(−)-2i]
OUT: 7.46

IN: What value of pIC50 has been recorded for this entry: O=C(O)CCCC(=O)N1N=C(c2c(-c3ccc(Cl)cc3)c3ccccc3[nH]c2=O)CC1c1ccc(Cl)cc1 (stereo not shown) [2b]
OUT: 6.19

---

- test name: Mouse plasma and brain pharmacokinetics, IP administration
- Type: in vivo
- condition info: male, C57BL/6, mouse, brain, intraperitoneal, 10 mg/kg, 10 mg/kg IP; 0.25 h; read-out: brain calculated concentration, individual (Group 1-3)
test readout: concentration at 0.25 h (ng/g)
Give the value in ng/g but do not write ng/g after it.

IN: What value of concentration at 0.25 h has been recorded for this entry: O=C(O)CC(F)(F)C(=O)N1N=C(c2c(-c3ccc(Cl)cc3)c3ccccc3[nH]c2=O)CC1c1ccc(Cl)cc1 (stereo not shown)
OUT: 12

---

- test name: Kinetic solubility in PBS (nephelometer)
- Type: physicochemical
- condition info: Dulbecco's phosphate-buffered saline (DPBS), 25 °C, pH 7.2, aqueous buffer, kinetic from dmso stock, 1% DMSO, room temperature, n = 7
- Source text: Anticipating that the carboxylate side chain may hinder BBB penetrance, we synthesized and biologically screened a series of 2i prodrugs with ester and amide masking groups. With the classical physiochemical parameters required for brain exposure (i.e., molecular weight, MW, lipophilicity, and topological polar surface area, TPSA) and drug release mechanisms beyond the BBB in mind, we focused on simple alkyl-based promoieties. […]
test readout: solubility kinetic at 2 h

Solved entries:
• O=C(O)CCC(=O)N1N=C(c2c(-c3ccc(Cl)cc3)c3ccccc3[nH]c2=O)CC1c1ccc(Cl)cc1 (stereo not drawn) = ~208 µM
• O=C(O)CC(F)(F)C(=O)N1N=C(c2c(-c3ccc(Cl)cc3)c3ccccc3[nH]c2=O)CC1c1ccc(Cl)cc1 (stereo not drawn) = ~38 µM

IN: What value of solubility kinetic at 2 h has been recorded for this entry: NC(=O)CC(F)(F)C(=O)N1N=C(c2c(-c3ccc(Cl)cc3)c3ccccc3[nH]c2=O)CC1c1ccc(Cl)cc1 (stereo not drawn)
OUT: ~30 µM

---

- test name: Mouse plasma and brain pharmacokinetics, IV administration
- Assay type: in vivo
- condition info: male, C57BL/6, mouse, plasma, intravenous, 5 mg/kg, 5 mg/kg IV; 1 hr; read-out: plasma concentration, Mean
test readout: concentration at 1 h (ng/mL)
Give the value in ng/mL but do not write ng/mL after it.

IN: What value of concentration at 1 h has been recorded for this entry: O=C(O)CC(F)(F)C(=O)N1N=C(c2c(-c3ccc(Cl)cc3)c3ccccc3[nH]c2=O)CC1c1ccc(Cl)cc1 (stereo not shown)
OUT: 70.4

---

- experimental system: GluN1/GluN2D (Rattus norvegicus, UniProt P35439+Q62645)
- test name: Two-electrode voltage-clamp recordings, Xenopus laevis oocytes, GluN1/GluN2D
- Assay type: cell-based
- Design: GluN2B (NM_012574.1), GluN2C (NM_012575.3), and GluN2D (NM_022797.2) were provided by; expressed in transfected cells; host or cells: Xenopus laevis oocytes (cRNA injection)
- condition info: 30 μM test compound; 100 μM glutamate, 30 μM glycine; mean ± SEM; read-out: I 30 μM / I control GluN2D
Some molecules, each annotated with its measured remaining activity at 30 µM.
Give the value in % but do not write % after it.

• CCOC(=O)CC(F)(F)C(=O)N1N=C(c2c(-c3ccc(Cl)cc3)c3ccccc3[nH]c2=O)CC1c1ccc(Cl)cc1 (stereo not shown) = 87
• O=C(CC(F)(F)C(=O)N1N=C(c2c(-c3ccc(Cl)cc3)c3ccccc3[nH]c2=O)CC1c1ccc(Cl)cc1)OCc1ccccc1 (stereo not shown) = 96
• O=C(CC(F)(F)C(=O)N1N=C(c2c(-c3ccc(Cl)cc3)c3ccccc3[nH]c2=O)CC1c1ccc(Cl)cc1)OCC1CC1 (stereo not shown) = 92

Shift focus to the following entry.
IN: What value of remaining activity at 30 µM has been recorded for this entry: N[C@@H](CCC(=O)N1N=C(c2c(-c3ccc(Cl)cc3)c3ccccc3[nH]c2=O)CC1c1ccc(Cl)cc1)C(=O)O (stereo partly shown)
OUT: 3.1

Where do the numbers come from? From paper PMC10485906.
